Recorded IC50 by entry
Biological target: PAK1 (Homo sapiens)
Sequence (Q13153 whole entry): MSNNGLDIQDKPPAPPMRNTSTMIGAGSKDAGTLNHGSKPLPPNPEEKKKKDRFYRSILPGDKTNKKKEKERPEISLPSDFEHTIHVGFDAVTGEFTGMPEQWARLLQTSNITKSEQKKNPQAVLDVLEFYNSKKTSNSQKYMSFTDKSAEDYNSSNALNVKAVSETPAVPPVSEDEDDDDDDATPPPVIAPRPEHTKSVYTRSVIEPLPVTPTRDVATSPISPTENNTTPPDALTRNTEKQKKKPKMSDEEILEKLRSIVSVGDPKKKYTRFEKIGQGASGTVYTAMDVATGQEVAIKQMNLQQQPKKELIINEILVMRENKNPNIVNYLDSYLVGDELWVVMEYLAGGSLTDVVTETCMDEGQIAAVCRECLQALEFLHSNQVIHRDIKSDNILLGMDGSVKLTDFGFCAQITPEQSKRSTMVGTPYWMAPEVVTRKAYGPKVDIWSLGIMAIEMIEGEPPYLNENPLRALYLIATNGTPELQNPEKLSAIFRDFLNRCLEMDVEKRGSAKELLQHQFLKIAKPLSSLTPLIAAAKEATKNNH
Assay: Z'Lyte fluorescence-based (FRET) PAK kinase assay, PAK1
Type: biochemical
Details: Table 1 of Example 100; 50 μM ATP

// worked examples, IC50 included
Which IC50 value belongs to CN1CCN(c2ccc(Nc3ncc4ccc(=O)n(C5CCC(C)(C)c6ccccc65)c4n3)cc2)CC1 (stereo not shown) ?
< 1 µM

Given the entry COc1ccccc1Cn1c(=O)ccc2cnc(Nc3ccc(N4CCN(C)CC4)cc3)nc21 , report its measured IC50.
< 1 µM

Recorded IC50 for Cc1ccc(C)c(Cn2c(=O)ccc3cnc(Nc4ccc(N5CCN(C)CC5)cc4)nc32)c1 , please?
1 to 10 µM

Fill blank: measured IC50 of the molecule O=c1ccc2cnc(Nc3ccc(NC4CCCNC4)cc3)nc2n1Cc1ccccc1C(F)(F)F (stereo not shown) is ____.
< 1 µM

***
Which IC50 is listed for COc1ccc(F)cc1Cn1c(=O)ccc2cnc(Nc3ccc(N4CCN(C)CC4)cc3)nc21 ?
< 1 µM

Recorded IC50 of CN1CCN(c2ccc(Nc3ncc4ccc(=O)n(Cc5ccccc5C#N)c4n3)cc2)CC1 , please.
< 1 µM

So what's the measured IC50 for this one? CN1CCN(c2ccc(Nc3ncc4ccc(=O)n(Cc5ccc(Cl)cc5)c4n3)cc2)CC1
1 to 10 µM

Look up IC50: CC(c1ccccc1)n1c(=O)ccc2cnc(Nc3ccc(N4CCN(C)CC4)cc3)nc21 (stereo not shown)
1 to 10 µM

Which IC50 is reported for this molecule? CN1CCN(c2ccc(Nc3ncc4ccc(=O)n(Cc5cccnc5)c4n3)cc2)CC1
1 to 10 µM

Any idea what IC50 was measured for CN1CCN(c2ccc(Nc3ncc4ccc(=O)n(Cc5ccccc5OC(F)(F)F)c4n3)cc2)CC1 ?
< 1 µM

Recorded IC50 for COc1cccc(Cn2c(=O)ccc3cnc(Nc4ccc(N5CCN(C)CC5)cc4)nc32)c1 , please?
1 to 10 µM

Form field: reported IC50 of O=c1ccc2cnc(Nc3ccc(OC4CCNCC4)cc3)nc2n1Cc1ccccc1C(F)(F)F
< 1 µM

Requested field: IC50. Item: O=c1ccc2cnc(Nc3ccc(N4CCOCC4)cc3)nc2n1C1CCCC1
> 10 µM
